The measured values listed here are drawn from ChEMBL document CHEMBL1131110.

Hi there, I'd appreciate the recorded Max inhibition for every entry that follows.
biological target: P2Y purinoceptor 1 (Meleagris gallopavo); test: Antagonist activity at P2Y1 receptor measured as capacity to inhibit phospholipase C stimulation elicited by 10 nM 2-MeSATP; type: functional
Record the result as a number with its unit.

IN: Form field: reported Max inhibition of `CSc1ncnc2c1ncn2[C@H]1C[C@H](OP(=O)(O)O)[C@@H](COP(=O)(O)O)O1`
OUT: 78%

IN: Check Nc1ncnc2c1ncn2C1OC(COP(=O)(O)O)CC1OP(=O)(O)O (stereo not drawn) too.
OUT: 81%

IN: Check `Nc1nc(Cl)nc2c1ncn2[C@H]1C[C@H](OP(=O)(O)O)[C@@H](COP(=O)(O)O)O1` too.
OUT: 80%
